The origin of these recorded values is paper PMC4543428.

Structures can show the parent of a compound that is named as a salt.
These molecules were tested on sigma1 receptor (Mus musculus); Ki is the recorded read-out.
Sequence (O55242 whole entry): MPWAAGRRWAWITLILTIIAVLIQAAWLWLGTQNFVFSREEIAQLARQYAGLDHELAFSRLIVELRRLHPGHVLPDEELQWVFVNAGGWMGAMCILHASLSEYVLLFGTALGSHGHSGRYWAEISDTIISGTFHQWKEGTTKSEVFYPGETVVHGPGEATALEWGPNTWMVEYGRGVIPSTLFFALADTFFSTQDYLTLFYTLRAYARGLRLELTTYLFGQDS
The reply should contain only the number, in nM.

The following molecules have reported results that may help.
MOLECULE	MEASUREMENT_UNITS	MEASUREMENT
COc1ccc2c(c1)[C@]13CCCC[C@@H]1[C@H](C2)N(C)CC3 [Dextromethorphan, dextromethorphan hydrobromide]	nM	71.7
Cc1ccccc1NC(=N)Nc1ccccc1C [DTG, 1,3-di(2-tolyl)guanidine]	nM	75.2

Attention now turns to another entry.
Data request: Could you tell me which Ki is on file for CC(C(O)c1ccc(O)cc1)N1CCC(Cc2ccccc2)CC1 (stereo not drawn) [Ifenprodil, ifenprodil (+)-tartrate] ?
Data returned: 16.4

* * *

Molecular target: sigma2 receptor (Mus musculus)
Sequence (Q8VD00 1-176): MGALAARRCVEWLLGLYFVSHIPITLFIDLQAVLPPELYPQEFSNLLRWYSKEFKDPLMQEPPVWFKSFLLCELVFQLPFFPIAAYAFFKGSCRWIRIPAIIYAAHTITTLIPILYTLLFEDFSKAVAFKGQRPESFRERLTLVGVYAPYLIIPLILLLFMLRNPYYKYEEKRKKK
Test: Sigma2 receptor competition binding against [3H]DTG /
Conditions: 3.0 nM [3H]DTG / 500 nM (+)-pentazocine; 60 min; 25 °C; mouse lung membranes
Where a name gives a salt, the structure may show the parent alone.
Threshold check on Sigma2 nH (pseudo-Hill slope): at or above 1 gives t, strictly below gives f.

Study these solved cases before continuing.
COMPOUND	CLASS_NAME
CC(C(O)c1ccc(O)cc1)N1CCC(Cc2ccccc2)CC1 (stereo not drawn) [Ifenprodil, ifenprodil (+)-tartrate]	f
Cc1ccccc1NC(=N)Nc1ccccc1C	f
Cc1ccc2c(c1)C1CN(C)CCC1N2C(=O)CSc1nnnn1-c1ccc(Cl)cc1 (stereo not drawn)	t
C=CCN1CCC2(C)c3cc(O)ccc3CC1C2C (single isomer, unassigned; (+)) [(+)-NANM, (+)-N-allylnormetazocine]	t
C=CCN1CCC2(C)c3cc(O)ccc3CC1C2C (single isomer, unassigned; (-)) [(−)-NANM, (−)-N-allylnormetazocine]	f

Kindly consider the entry below.
Data request: Textbook exercise: given the entry COc1ccc2c(c1)[C@]13CCCC[C@@H]1[C@H](C2)N(C)CC3 [Dextromethorphan, dextromethorphan hydrobromide] , state whether its Sigma2 nH (pseudo-Hill slope) is greater than or equal to 1.
Data returned: t

* * *

Molecular target: sigma1 receptor (Mus musculus)
Conditions: 1.0 nM [3H](+)-pentazocine; 6 h; 37 °C; mouse lung membranes
Counter-ions that a name gives are not always drawn.
# label = 1 (yes) if Sigma1 nH (pseudo-Hill slope) < 1 else 0 (no)

Field: example entries. Status: answers known.
MOLECULE	EXPERIMENTAL_TARGET	CLASS_NAME
C=CCN1CCC2(C)c3cc(O)ccc3CC1C2C (single isomer, unassigned; (-)) [(−)-NANM, (−)-N-allylnormetazocine]	sigma1 receptor (Mus musculus)	0 (no)
C=CCN1CCC2(C)c3cc(O)ccc3CC1C2C (single isomer, unassigned; (+)) [(+)-NANM, (+)-N-allylnormetazocine]	sigma1 receptor (Mus musculus)	0 (no)
CC(C(O)c1ccc(O)cc1)N1CCC(Cc2ccccc2)CC1 (stereo not drawn) [Ifenprodil, ifenprodil (+)-tartrate]	sigma1 receptor (Mus musculus)	0 (no)
Cc1ccccc1NC(=N)Nc1ccccc1C [DTG, 1,3-di(2-tolyl)guanidine]	sigma1 receptor (Mus musculus)	0 (no)
COc1ccc2c(c1)[C@]13CCCC[C@@H]1[C@H](C2)N(C)CC3 [Dextromethorphan, dextromethorphan hydrobromide]	sigma1 receptor (Mus musculus)	1 (yes)

Data request: Sigma1 nH (pseudo-Hill slope) strictly < 1 for this molecule? Cc1ccc2c(c1)C1CN(C)CCC1N2C(=O)CSc1nnnn1-c1ccc(Cl)cc1 (stereo not drawn) [AG-205]
Data returned: 0 (no)
